log10 of IC50 for Autotaxin (Homo sapiens, UniProt Q13822), merged from several publications.
property: log10 of IC50 (log10 of the value in nM)

- molecule: "COC(=O)c1ccc(C(=O)N2C[C@H]3CN(C(=O)OCc4cc(Cl)cc(Cl)c4)C[C@H]3C2)cc1"
  endpoint.result: 2.07
- molecule: "CC(C)c1ccccc1OCC(=O)N1C[C@@H]2CN(C(=O)c3ccc4[nH]nnc4c3)C[C@H]2C1"
  endpoint.result: 1.28
- molecule: "O=C(NC1CC2(C1)CN(C(=O)OCc1cc(Cl)cc(Cl)c1)C2)c1ccc2[nH]c(=O)oc2c1"
  endpoint.result: 1.42
- molecule: "O=C(/C=C/c1ccc(OC(F)(F)F)c(F)c1)N1CC[C@@H]2CN(C(=O)NCc3cnn[nH]3)C[C@@H]2CC1"
  endpoint.result: 1.62
- molecule: "Cn1c(COc2cc(Cl)c(C#N)cc2-c2cc(C(F)(F)F)ccc2F)n[nH]c1=O"
  endpoint.result: 1.57
- molecule: "N#Cc1cc(-c2ccccc2)c(OCc2ccc(=O)[nH]n2)cc1Cl"
  endpoint.result: 0.48
- molecule: "O=C(OCc1cc(F)cc(OC(F)(F)F)c1)N1CCC2(CCCN(C(=O)c3ccc4[nH]nnc4c3)C2)C1 (stereo not shown)"
  endpoint.result: 2.08
- molecule: "O=C(NCc1cnn[nH]1)C1CC2(CCN(C(=O)/C=C/c3ccc(OC(F)(F)F)cc3)CC2)C1"
  endpoint.result: 1.96
- molecule: "O=C(OCc1ccc(OC(F)(F)F)cc1F)N1CC2(CCN(C(=O)C3CCc4[nH]nnc4C3)CC2)C1 (stereo not shown)"
  endpoint.result: 0.30
- molecule: "CO[C@@]12CN(C(=O)OCc3ccc(OC(F)(F)F)cc3)C[C@H]1CN(C(=O)c1ccc(S(N)(=O)=O)cc1)C2 (single isomer, unassigned)"
  endpoint.result: 1.11
- molecule: "Cc1cc(OCc2n[nH]c3nc(NCCO)ncc23)c(C(C)(C)C)cc1Cl"
  endpoint.result: 0.95
- molecule: "CO[C@]12CN(C(=O)OCc3ccc(OC(F)(F)F)cc3)C[C@@H]1CN(C(=O)c1ccc(S(N)(=O)=O)cc1)C2 (racemic)"
  endpoint.result: 1.30

---

Ok so here's the combined literature set: IC50 for UniProt Q13822.
property: IC50 (nM)

- compound: "CN1CC2Cc3c(n(Cc4ccc(F)cc4)c4ccccc34)CN2C1=O (racemic)"
  system.under.test: "UniProt Q13822"
  property: "IC50"
  result.operator: "<"
  endpoint.result: 500
- compound: "O=C(/C=C/c1ccc(OC(F)(F)F)cc1)N1CC[C@@H]2CN(C(=O)N3CCc4[nH]nnc4C3)C[C@@H]2CC1"
  system.under.test: "UniProt Q13822"
  property: "IC50"
  result.operator: "="
  endpoint.result: 2
- compound: "O=C(OCc1cc(Cl)cc(Cl)c1)N1CCC2(C1)CN(C(=O)c1ccc3[nH]c(=O)oc3c1)C2"
  system.under.test: "UniProt Q13822"
  property: "IC50"
  result.operator: "="
  endpoint.result: 26

---

Study the reported IC50 values for Autotaxin (Homo sapiens, UniProt Q13822) given below; they originate from different publications.

- smiles.structure: "O=C(c1ccc2[nH]nnc2c1)N1C[C@@H]2[C@H](C1)[C@H]1CN(C(=O)c3ccc(C(F)(F)F)c(OCC4CC4)n3)C[C@@H]21"
  result.operator: "="
  IC50 [nM]: 17
- smiles.structure: "Cc1cc(OCc2n[nH]c(=O)n2C)c(-c2cccc(C(=O)N(C)C)c2)cc1Cl"
  result.operator: "="
  IC50 [nM]: 22
- smiles.structure: "CN(C)S(=O)(=O)c1ccc(/C=C/C(=O)N2CC[C@@H]3CN(C(=O)c4ccc5[nH]nnc5c4)C[C@@H]3CC2)cc1"
  result.operator: "="
  IC50 [nM]: 977
- smiles.structure: "CCCc1cc(CNc2ncc(C(=O)N3CCC34COC4)cn2)cc(OC(C)C)c1"
  result.operator: "<"
  IC50 [nM]: 100
